test: in vitro; conditions: human, hela cells, % viability
List of viability at 28.5 h, 10 µM values.
Give the value, in units of %, as a plain number.

CC(C)N1CC(C(=O)N(C)C)C2(CCc3ccccc3C2O)C1 (centres unmarked) | 89.1
O=C(c1ccccc1)c1cc(Cl)ccc1-n1ccnc1Br | 90.4
COc1cc(CNC(=O)N2CCN(C3CCN(C)CC3)CC2)cc(OC)c1OC | 93.3
C/C(=N\NC(=O)CCC(=O)Nc1ccc(I)cc1)c1ccc(O)cc1O | 89.9

Record COc1ccc(N(CC(O)CN2CCOCC2)S(=O)(=O)c2ccccc2)cc1 (centres unmarked) , field viability at 28.5 h, 10 µM: 84.5

Cited source: paper PMC12040169
